- Test system: Bovine cardiac myofibrils
- Measurement notes: Dose-dependent myofibril ATPase modulation (calcium-buffered, pyruvate kinase and lactate dehydrogenase-coupled ATPase assay at pCa25)
- Assay type: biochemical
- Setup conditions: concentration at which ATPase activity was 1.4-fold higher than the bottom of the dose curve, mean of a minimum of two independent tests
Measured endpoint: log10 AC1.4 (log10 of the value in µM)
Units before log transform: µM; reported quantity: AC1.4; transform: log10.

# example entries with known answers
Compound | log10 AC1.4
Cc1[nH]c(S(=O)(=O)N[C@H]2COc3cc(F)c(Cl)cc3C2)cc1C(=O)N1CC(C)(C#N)C1 [Compound 80] | 1.12
Cc1[nH]c(S(=O)(=O)N[C@H]2C[C@H](c3cc(C(F)(F)F)ccn3)C2)cc1C(=O)N1CC(C)(C#N)C1 [Compound 58] | 0.00
Cc1cc(S(=O)(=O)N[C@@H]2COc3cc(F)c(Cl)cc3[C@@H]2O)cc(N2CC(OC(F)F)C2)n1 [Compound 88] | 0.34

Return reported log10 AC1.4 values for all items listed beneath this line.
1. CNc1cc2nc(C)[nH]c(=O)c2cc1S(=O)(=O)NC(C)Cc1[nH]c2ccccc2c1C (stereo not shown) [Compound 29]
2. Cc1[nH]c(S(=O)(=O)N[C@@H]2CCc3c([nH]c4ccccc34)C2)cc1C(=O)NCCO [Compound 39]
3. CNc1cc2c(cc1S(=O)(=O)N[C@H]1C[C@H](c3cc(C(F)(F)F)ccn3)C1)c(=O)[nH]c(=O)n2C [Compound 59]
4. CNc1cc2nc(C)[nH]c(=O)c2cc1S(=O)(=O)NCCc1cc2ccccc2[nH]1 [Compound 34]

0.91
0.24
-0.38
1.12
